System: HL-60
TEST DETAILS: cell viability (% survival relative to DMSO control); higher = less cytotoxic
MEASUREMENT PARAMETERS: 0.001 µM; 72 h; co-treatment: AZD3965 100 nM
Reported cell viability values for the following compounds.

{"columns": ["COMPOUND", "TARGET OR TEST SYSTEM", "MEASUREMENT UNITS", "cell viability"],
 "data": [
  ["CN1CC(=O)N2[C@H](c3ccc4c(c3)OCO4)c3[nH]c4ccccc4c3C[C@@H]2C1=O [Tadalafil]", "HL-60", "%", 104],
  ["N#Cc1ccc(C2CCCc3cncn32)cc1 (stereo unspecified) [Fadrozole]", "HL-60", "%", 100],
  ["O=NN(CCCl)C(=O)NCCCl [Carmustine]", "HL-60", "%", 95.3],
  ["C#CCN[C@@H]1CCc2ccccc21 [Rasagiline]", "HL-60", "%", 102],
  ["OC[C@H]1N[C@@H](c2c[nH]c3c(O)ncnc23)[C@H](O)[C@@H]1O [Forodesine]", "HL-60", "%", 97.5],
  ["O=C(Cc1cccc(OC(F)(F)F)c1)Nc1ccc(CCCCc2nnc(NC(=O)Cc3ccccn3)s2)nn1 [CB-839]", "HL-60", "%", 105],
  ["CN(C)C(=N)NC(=N)N [Metformin]", "HL-60", "%", 94.9],
  ["Nc1ccn([C@@H]2O[C@H](CO)[C@@H](O)C2(F)F)c(=O)n1 [Gemcitabine]", "HL-60", "%", 101],
  ["COc1cc(C2Oc3cc(C4Oc5cc(O)cc(O)c5C(=O)C4O)ccc3OC2CO)ccc1O (stereo unspecified) [Silibinin]", "HL-60", "%", 107],
  ["O=C(c1c2ccccc2cc2ccccc12)N1CCC(N2CCC[C@@H](C(=O)N3CCOCC3)C2)CC1", "HL-60", "%", 93.6],
  ["O=c1[nH]c(=O)n([C@H]2C[C@H](O)[C@@H](CO)O2)cc1I [Idoxuridine]", "HL-60", "%", 94.7],
  ["Cc1cc(O)c2c(c1)C(=O)c1cc(O)cc(O)c1C2=O [Emodin]", "HL-60", "%", 101],
  ["O=C(CCl)N(CCCNC(=O)C(F)(F)F)c1ccc([N+](=O)[O-])cc1 [ML175]", "HL-60", "%", 103],
  ["NCc1ccc(-c2cccnc2)s1 [(5-Pyrid-3-YLTHIEN-2-YL)METHYLAMINE]", "HL-60", "%", 103],
  ["O=[As]O[As]=O (stereo unspecified) [Arsenic trioxide]", "HL-60", "%", 103],
  ["OCC(CO)N[C@H]1C[C@](O)(CO)[C@@H](O)[C@H](O)[C@H]1O [Voglibose]", "HL-60", "%", 96.2]
]}
